- Tested on: K4 kissing-loop RNA reporter;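 note: bound reporter read as fluorescence of individual clusters on recovered sequencing chips by microscopy, with normalized cluster intensities fitted with a binding model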
- assay: apparent KD of K4 kissing-loop reporter; higher = weaker reporter binding
- test context: Eterna round: R107; input ligand: tryptophan 2.4 mM
Assign class by apparent KD of K4 kissing-loop reporter: not lower than 300 nM means class 1; lower than 300 nM means class 0.

Some solved cases for reference:
{"sequence content": "UACUAUAGUGAUGUUAUAGAUAAACCAGAUACCAGUGUGACAUAACACCCUUGGCAGCUGAUAAGGGAACAUAUGAAAACAUAUG [AstroSSTHeAED5.17]", "qualitative label": "class 0"}
{"sequence content": "CCUAUCUCAUACGAUACCAGUCGUCGAGUGAUGUUCGAUUAAAUAUAUUUGCCAAAUAACGACCCUUGGCAGCGUAUGGGAUAGG [Ex Theophylline B K4 17]", "qualitative label": "class 1"}
{"sequence content": "GCUCAGGAGUGAUGUUCCUAGUGAUGUUAACGAGGACCGGUACGGCCGCCACUCGAUACGGCCGGACCGUAGGAUAAACUAGAGC [Same State - Tryptophan A (Freestyle 10)]", "qualitative label": "class 1"}
{"sequence content": "GGCACGGUGACGCGGCUGCCGUGCGCUUGGGAGGAUAUGUUUCGUGACAGAAGGCCCAGUGAUGUUGGGUCUGUUCAAAAGGACU [Edmatianri]", "qualitative label": "class 0"}

Input line: Hi team, for UGAUACCAGACGGCCGCCACUGGUGCAUGUCAAAGACAUGCUAACCAAAUCGUGGAGUGAUGUUCCAGGACCGGGUCUGGUAUCU [TrypBX 22 #SwitchBubble #Palindromic #StaticStem] , is the recorded apparent KD of K4 kissing-loop reporter at or above 300 nM?
Output line: class 1

* * *

- System: MS2 coat protein
- assay: apparent KD of MS2 coat protein; designed switch direction (-1 OFF switch, 1 ON switch): -1; higher = weaker reporter binding
- test context: Eterna round: R98; input ligand: FMN 200 uM
measurement type: apparent KD of MS2 coat protein (nM)
Write it as a number; the unit nM goes unstated.

Example cases with answers are listed next.
{"sequence content": "UGUUGUUACGCAGGAUAUUGCCAACAGGCGGUAGGAUAUCCGAAAGGAGAAGGAUCGCCAACAGGCGAGAAGGGCGGGUUAACA [pwkr exNG2 2xF7 2FMN.10.3]", "measured number": 26.7}
{"sequence content": "GGUUGUUACGCAGGAUAUUGCCAACAGGCAGUAGGAUAUCCGAAAGGAGAAGGACCGCCAACAGGCGAGAAGGGCGGGUUAACC [pwkr exNG2 2xF7 2FMN.10.4]", "measured number": 48.3}
{"sequence content": "UAUAUUUAGGCAGGAUAUACAUGUAUAUAUAAUUUUUUAUAUAUUAUUACAUGAGGAUCACCCAUGUAGAAGGGCCUUAUUAUA [LRO040_Exclusion NG 2]", "measured number": 62.9}
{"sequence content": "CGCUCGCCGAGAGGAUAUGCAUUGGUGGGCGGUCCUGAACAUGAGGAUCACCCAUGUAUCAGUAAGCAGAAGGCUUGGUAGACG [Usesreed]", "measured number": 16.5}

Now look at this entry.
Input line: What apparent KD of MS2 coat protein value was documented for this sequence, AGAGCCUCGUGAGGAUAUACAUGAGGAUCACCCAUGUAAUAGGAUGAACGGAGGAAACUCCGAAUGUAGAAGGCACGAGGCUCA [Exclusion NG 2/11-B1] ?
Output line: 686
